# Test system: DU-145 prostate
# experimental details: NCI tumour cell line growth inhibition, 48 h; in the data active means GI50 below about 0.43 µM; inactive means the rest
Select the matching outcome among Y for active, N for inactive

Take a look at these entries with their results.
1) CC1SC(c2ccc(Cl)c(Cl)c2)N(NC(=O)C(O)c2ccccc2)C1=O (stereo unspecified)    N
2) O=C(Nc1cccc(Cl)c1)Nc1cc2ncncc2cc1OCc1cccc(F)c1    N
3) COc1cccc2cc(N(C)c3ncnc4ccccc34)ccc12    Y
4) O=C(CNc1c(Cl)cccc1Cl)Nc1ccc(-c2nc3ccccc3s2)cc1    N

Outcome logged for [N-]=[N+]=NCCCn1c2c(c3ccccc3c1=O)C(=O)c1cc(Br)ccc1-2 in this assay:
N

Please do the same for C[C@]12CC[C@H](OC3OC(O)C(O)C(O)C3O)C=C1CCC1C2CC[C@]2(C)[C@@H](c3ccc(=O)oc3)CC[C@]12O (stereo partly specified) as well.
Y

Same again, this time with COc1ccc2c(c1OC)CO[C@@H]2[C@H]1c2c(c(Br)c3c(c2OC)OCO3)CCN1C
N

Also need O=C(NC1CCC(Br)CC1)C1CCCC(S(=O)(=O)NC2CCCCC2)C1 (stereo unspecified) , thanks.
N

Field entry: COc1ccc(CN2C(=O)C(Cl)=C(Nc3cccc(O)c3)C2=O)cc1
N

Next molecule up: COc1cc(NC(=O)c2ccc(C(F)(F)F)nc2Nc2ccc(Cl)cc2C)cc(OC)c1OC
N

Next: Fc1ccc(-c2nnc3sc(-c4cc(Cl)cc(Cl)c4)nn23)cc1Cl
N

Next molecule: FC(F)(F)CNc1nccc(-c2cnn3ncccc23)n1
N

Also need O=C(O)c1sccc1O , thanks.
N

Same question for Cc1cc(Nc2ncc(F)c(N[C@H]3[C@@H](C(N)=O)[C@@H]4C=C[C@H]3C4)n2)ccc1N1CCN(C)CC1 please.
N

Try this molecule too: O=c1[nH]c2ccc(N=Cc3c(O)[nH]c4ccccc34)cc2[nH]1
N

Okay, and CC/C=C\C/C=C\C[C@H]1C/C=C2/C(=O)C=C[C@@H]2C/C=C\CCC(=O)O1 ?
N

====

# reported TGI; entries follow
# Tested on: SK-MEL-5 melanoma
# experimental details: NCI tumour cell line growth inhibition, 48 h

Examples with their reported TGI follow.
1. Fc1ccc(-c2nnc3sc(-c4cc(Cl)cc(Cl)c4)nn23)cc1Cl    > 100 µM
2. Cn1c(=O)c2c(ncn2Cc2ccc(O)c([N+](=O)[O-])c2)n(C)c1=O    > 100 µM
3. CC(C)(C)c1ccc2c(c1)C(=O)c1ccccc1C2=O    40.2 µM

Which measured TGI value corresponds to N#Cc1ccc(Sc2ccccc2)cc1C#N ?
> 100 µM

Here is the next compound: CC(=O)Nc1ccc2c(C3=C(c4cn(C)c5ccccc45)C(=O)NC3=O)cn(C)c2c1
3.12 µM

Ok, now O=[N+]([O-])c1cccc(-c2ncnc(-c3cccc([N+](=O)[O-])c3)n2)c1
> 100 µM

Please answer likewise for COC(=O)[C@]12CC[C@H]3CN(C(=O)OCc4ccccc4)[C@H]([C@H]31)[C@H](C(=O)OCC[Si](C)(C)C)N2S(=O)(=O)c1ccc(C)cc1
> 100 µM

Query CC1(C)CC(=O)c2c(nc3c(ccc4ccccc43)c2-c2ccc(NC(=O)CCCC(=O)Nc3ccc(-c4c5c(nc6c4ccc4ccccc46)CC(C)(C)CC5=O)cc3)cc2)C1 next
> 100 µM

What do you get for CCCCCCCC/C=C\CCCCCCC/C=C1/C[C@](/C=C/C(=O)OC)(CO)OC1=O ?
18 µM

====

# Tested on: SK-OV-3 ovarian
# experimental details: NCI tumour cell line growth inhibition, 48 h
endpoint label: TGI

1. CCCCn1c(C)c(C(=O)CC)c(C(=O)NCCN2CCN(c3ccccc3Cl)CC2)c1C    35.7 µM
2. O=C(Nc1cccc(Cl)c1)Nc1cc2ncncc2cc1OCc1cccc(F)c1    6.13 µM
3. CCn1cc(C(=O)N/N=C/c2ccc(Br)cc2)c(=O)c2cc(F)c(N3CCNC(C)C3)c(F)c21 (centres undefined)    3.68 µM
4. C[C@H]1CC[C@@H]2[C@@H](C)C[C@H]3[C@@H]4C(C)(C)OC(=O)[C@]4(C)C(=O)[C@@]23C1=O    > 100 µM
5. COc1cccc2cc(N(C)c3ncnc4ccccc34)ccc12    18.4 µM
6. CC(=O)OC1Oc2ccc(C)cc2-c2oc(=O)c(-c3cc4ccccc4oc3=O)cc21 (centres undefined)    8.57 µM
7. O=C(CC(Cl)(Cl)C(Cl)(Cl)Cl)c1ccccc1    38.2 µM
8. Nc1ccn(C2OC(COP(=O)(O)OCC3OC(n4cc(F)c(=O)[nH]c4=O)CC3O)C(O)C2O)c(=O)n1 (centres undefined)    > 100 µM
9. O=C(O)CCC(NC(=O)c1ccc(Nc2nc3ccc(C(F)(F)F)cc3nc2-c2ccccc2)cc1)C(=O)O (centres undefined)    > 100 µM
10. OC1(c2ccccc2)CCCCCCCCC(O)(c2ccccc2)CCCCCCCC1 (centres undefined)    > 100 µM

Missing value: TGI, SK-OV-3 ovarian, entry O=C(CNc1c(Cl)cccc1Cl)Nc1ccc(-c2nc3ccccc3s2)cc1 . Fill in?
70.6 µM

Please give the result for Cn1cc(C2=C(c3c4n(c5ccccc35)CCN(C(N)=S)C4)C(=O)NC2=O)c2ccccc21 too.
> 25 µM

====

Listed compounds paired with reported TGI
# System: SW-620 colon
# experimental details: NCI tumour cell line growth inhibition, 48 h

1. CC1(C)C(=NN=C(N)N)C(C)(C)C1=NN=C(N)N    > 100 µM

State the recorded TGI for this entry: COc1ccc2c(c1OC)CO[C@@H]2[C@H]1c2c(c(Br)c3c(c2OC)OCO3)CCN1C
> 100 µM

Can you handle CCCC(=O)c1ccc2c(ccc(=O)n2C)c1 next?
> 100 µM

How about CN(CCNC(=O)c1nn(-c2ccccc2)c2c1ccc1ccccc12)CCNC(=O)c1nn(-c2ccccc2)c2c1ccc1ccccc12 ?
4.46 µM

// query: COc1cc(-c2nn(-c3ccc(NC(=O)NCCCNC(=O)c4ccccc4)cc3)cc2-c2ccncc2)ccc1Cl
> 100 µM

Please do the same for O=c1[nH]c2ccc(N=Cc3c(O)[nH]c4ccccc34)cc2[nH]1 as well.
> 25 µM

====

Each entry below carries its recorded TGI.
# Tested on: SNB-75 CNS
# experimental details: NCI tumour cell line growth inhibition, 48 h
Kindly provide the numeric value in µM only, without the unit symbol.

1. Cn1cc(C2=C(c3c4n(c5ccccc35)CCN(C(N)=S)C4)C(=O)NC2=O)c2ccccc21    10.6
2. CC/C=C\C/C=C\C[C@H]1C/C=C2/C(=O)C=C[C@@H]2C/C=C\CCC(=O)O1    6.92

Now consider a different molecule.
I'd like to know its TGI. The molecule in question is CCc1c(C)[nH]c2c1/C(=N/N=C1\CCCc3[nH]c(C)c(CC)c31)CCC2
50.1

====

# Tested on: UO-31 renal
# experimental details: NCI tumour cell line growth inhibition, 48 h
Below is a list of entries, each paired with its recorded TGI value.
All answers are understood in µM, so give the number only.

1) COC1/C=C/C(C)C(OC)CC(O)/C=C/C(C)C(C(C)C(OC)C(C)CCC(=O)C(C)C(C/C=C/N(C)C=O)OC)OC(=O)/C=C/C=C(\C)CC(OC)CC2=CC(=O)O[C@@H](C(C)C(OC)C1)[C@H]2O (stereo not given in full)    0.3
2) CC(C)(C)OC(=O)NCC(c1c[nH]c2ccc(Br)cc12)c1c[nH]c2ccc(Br)cc12    19.6
3) COc1ccc(F)cc1/C=C/C(=O)/C=C(/C=C/c1cc(F)ccc1OC)OB(F)F    2.47
4) CSc1nc(SC)c2cnn(CC3CO3)c2n1 (stereo not given)    45
5) O=C(CC(Cl)(Cl)C(Cl)(Cl)Cl)c1ccccc1    14.5
6) COc1ccc(C(O)c2cc3c(N)c(C(=O)Nc4cccc(OC)c4)sc3nc2C)cc1 (stereo not given)    1.72

Which measured TGI value corresponds to COc1cccc2cc(N(C)c3ncnc4ccccc34)ccc12 ?
13.8

One more compound: COC(=O)CCC1(NS(=O)(=O)c2ccc(C)cc2)CCC(C(C)(C)C)CC1 (stereo not given)
16

====

# System: BT-549 breast
# experimental details: NCI tumour cell line growth inhibition, 48 h
endpoint label: GI50

Solved cases (3 shown):
1) Oc1ccc(-c2cn3ccsc3n2)cc1O    10.2 µM
2) O=C(O)c1sccc1O    21.6 µM
3) Cn1cc(C2=C(c3c4n(c5ccccc35)CCN(C(N)=S)C4)C(=O)NC2=O)c2ccccc21    6.83 µM

Return reported GI50; argument: [N-]=[N+]=NCCCn1c2c(c3ccccc3c1=O)C(=O)c1cc(Br)ccc1-2
> 100 µM

Next up: ClC1=C(Cl)C(Cl)=C(Cl)C1=Cc1ccccc1
1.68 µM

Same question for COc1ccc2c(c1OC)CO[C@@H]2[C@H]1c2c(c(Br)c3c(c2OC)OCO3)CCN1C please.
6.8 µM
